All values here come from patent US20070218069A1.

Target: T1, K48-linked diubiquitin (human, UniProt P0CG48 1-76, isopeptide bond between Lys48 of one ubiquitin and the C-terminal Gly of the other)
T1 construct: Boston Biochem
Assay: SPR Biacore, antigen immobilized
Measurement type: Kd (nM)
A number alone suffices; assume nM.

-- ask State the recorded Kd for this entry: Fab apu02 (Fab, V domains shown) VH: EVQLVESGGGLVQPGGSLRLSCAASGFNVSYSYMHWVRQAPGKGLEWVASISSYYSYTSYADSVKGRFTISADTSKNTAYLQMNSLRAEDTAVYYCARSYSYYSAIDYWGQGTLVTVSS VL: DIQMTQSPSSLSASVGDRVTITCRASQSVSSAVAWYQQKPGKAPKLLIYSASSLYSGVPSRFSGSRSGTDFTLTISSLQPEDFATYYCQQSSYSSLFTFGQGTKVEIK
-- reply 12.7
